- TARGET_DESC: JAK3 (Homo sapiens, UniProt P52333)
- Construct: 5 μl of catalytic domain recombinant Kinase enzyme+Tyr peptide substrate (Invitrogen, Calif.)
- Sequence (P52333 822-1111 limits assumed): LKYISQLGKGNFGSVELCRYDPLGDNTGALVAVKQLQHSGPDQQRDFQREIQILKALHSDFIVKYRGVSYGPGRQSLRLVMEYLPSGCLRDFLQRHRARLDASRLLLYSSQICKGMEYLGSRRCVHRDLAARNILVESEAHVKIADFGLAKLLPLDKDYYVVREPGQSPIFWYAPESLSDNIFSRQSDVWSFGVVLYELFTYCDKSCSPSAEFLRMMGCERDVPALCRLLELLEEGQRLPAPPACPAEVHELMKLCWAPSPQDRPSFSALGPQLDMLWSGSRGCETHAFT
- METHOD: Z'-LYTE kinase assay, JAK3 tyrosine phosphorylation activity
- Procedure: JAK and TYK2 tyrosine phosphorylation activity is measured using the Z′-LYTE™ Technology developed by Invitrogen Corporation (Carlsbad, Calif.). For JAK1, JAK2 and JAK3 the Z′-LYTE™ Kinase Assay Kit-Tyr6 Peptide (part number PV4122) was used. […] The Z′-LYTE™ biochemical assay employs a fluorescence resonance energy transfer (FRET) coupled-enzyme format and is based on the differential sensitivity of phosphorylated and non-phosphorylated peptides to proteolitic cleavage. […]
pIC50: −log10 of the molar value.
pIC50 listing for selected molecules.

Here are 10 molecules together with their reported answers.
{"MOLECULE": "CC(=O)Nc1cccc(Nc2ncc(C(N)=O)c(Nc3ccc(S(C)(=O)=O)cc3)n2)c1 [Example 197]", "pIC50": "7.00 to 8.00"}
{"MOLECULE": "CC(=O)Nc1cc(Nc2ncc(C(N)=O)c(NCc3ccccc3)n2)ccc1Cl [Example 2]", "pIC50": "8.00 to 9.00"}
{"MOLECULE": "CN(C)[C@@H]1CCN(C(=O)Nc2cccc(Nc3cc(N[C@H](CO)c4ccccc4)c(C(N)=O)cn3)c2)C1 [Example 312]", "pIC50": "8.00 to 9.00"}
{"MOLECULE": "COc1ccc(Nc2ncc(C(N)=O)c(NCc3ccccc3)n2)cc1N(C)C(=O)N1CCCC1 [Example 239]", "pIC50": "7.00 to 8.00"}
{"MOLECULE": "NC(=O)c1cnc(Nc2cccc(NC(=O)N3CC=CC3)c2)nc1NCc1ccccc1 [Example 142]", "pIC50": "8.00 to 9.00"}
{"MOLECULE": "CC[C@H](C)Nc1nc(Nc2cccc(NC(=O)N3CCCC3)c2)ncc1C(N)=O [Example 145]", "pIC50": "8.00 to 9.00"}
{"MOLECULE": "CC(=O)Nc1cccc(Nc2ncc(C(N)=O)c(NCc3ccccc3)n2)c1 [Example 17]", "pIC50": "> 9.00"}
{"MOLECULE": "NC(=O)c1cnc(Nc2ccc(Cl)c(NC(=O)N3CCCC3)c2)nc1NCc1ccccc1F [Example 170]", "pIC50": "8.00 to 9.00"}
{"MOLECULE": "CC(=O)Nc1cccc(Nc2ncc(C(N)=O)c(NCc3cc(F)ccc3F)n2)c1 [Example 102]", "pIC50": "8.00 to 9.00"}
{"MOLECULE": "CCC(C)CNc1nc(Nc2ccc(Cl)c(NC(=O)N3CCCC3)c2)ncc1C(N)=O (centres unmarked) [Example 250]", "pIC50": "8.00 to 9.00"}

Turning now to a further record.
Per the records, this molecule ( CC(=O)Nc1cccc(Nc2ncc(C(N)=O)c(NC3Cc4ccccc4C3)n2)c1 [Example 92] ) has pIC50 equal to 7.00 to 8.00

====

- TARGET_DESC: Syk (Homo sapiens, UniProt P43405)
- METHOD: Syk IC50 (Table 1; method not given)
- Assay type: biochemical
pIC50: −log10 of the molar value.
pIC50 listing for selected molecules.

{"SMILES_STRUCTURE": "COC(=O)Nc1cccc(Nc2ncc(C(N)=O)c(NCc3ccccc3)n2)c1", "ENDPOINT_VALUE": "6.00 to 7.00"}
{"SMILES_STRUCTURE": "COCC(=O)Nc1cccc(Nc2ncc(C(N)=O)c(NC3CCC3)n2)c1", "ENDPOINT_VALUE": "6.00 to 7.00"}
{"SMILES_STRUCTURE": "CC(=O)Nc1cccc(Nc2ncc(C(N)=O)c(NCc3ccc(C)cc3)n2)c1", "ENDPOINT_VALUE": "< 6.00"}
{"SMILES_STRUCTURE": "CC(=O)Nc1cccc(Nc2ncc(C(N)=O)c(N(C)Cc3ccccc3)n2)c1", "ENDPOINT_VALUE": "< 6.00"}
{"SMILES_STRUCTURE": "CCNC(=O)Nc1cccc(Nc2ncc(C(N)=O)c(NC3CCCC3)n2)c1", "ENDPOINT_VALUE": "6.00 to 7.00"}
{"SMILES_STRUCTURE": "NC(=O)Nc1cccc(Nc2ncc(C(N)=O)c(NC3CCCC3)n2)c1", "ENDPOINT_VALUE": "6.00 to 7.00"}
{"SMILES_STRUCTURE": "COC(=O)Nc1cc(Nc2ncc(C(N)=O)c(NCC(F)(F)F)n2)ccc1Cl", "ENDPOINT_VALUE": "< 6.00"}
{"SMILES_STRUCTURE": "CC(=O)Nc1cccc(Nc2ncc(C(N)=O)c(N[C@H](C)c3ccccc3)n2)c1", "ENDPOINT_VALUE": "< 6.00"}

Per the records, this molecule ( CC(=O)Nc1cccc(Nc2ncc(C(N)=O)c(NC3CCCC3)n2)c1 ) has pIC50 equal to 6.00 to 7.00

Per the records, this molecule ( CC(=O)Nc1cccc(Nc2ncc(C(N)=O)c(NCC#N)n2)c1 ) has pIC50 equal to 6.00 to 7.00

Per the records, this molecule ( COCC(=O)Nc1cccc(Nc2ncc(C(N)=O)c(NCC(F)(F)F)n2)c1 ) has pIC50 equal to 6.00 to 7.00

====

- TARGET_DESC: TYK2 (Homo sapiens, UniProt P29597)
- Construct: 5 μl of catalytic domain recombinant Kinase enzyme+Tyr peptide substrate (Invitrogen, Calif.)
- Sequence (P29597 897-1176 limits assumed): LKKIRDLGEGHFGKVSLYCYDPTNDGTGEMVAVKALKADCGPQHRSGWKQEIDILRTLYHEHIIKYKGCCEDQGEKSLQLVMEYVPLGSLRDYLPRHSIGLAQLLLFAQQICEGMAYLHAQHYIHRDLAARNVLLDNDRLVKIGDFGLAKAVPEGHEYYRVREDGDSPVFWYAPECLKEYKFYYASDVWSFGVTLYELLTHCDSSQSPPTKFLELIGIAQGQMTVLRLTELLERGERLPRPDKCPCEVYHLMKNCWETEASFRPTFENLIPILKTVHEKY
- METHOD: Z'-LYTE kinase assay, TYK2 tyrosine phosphorylation activity
pIC50: −log10 of the molar value.
READOUT: pIC50

Here are 2 compounds together with their reported answers.
{"SMILES_STRUCTURE": "CC[C@H](C)Nc1nc(Nc2cccc(NC(=O)COC)c2)ncc1C(N)=O", "pIC50": "7.00 to 8.00"}
{"SMILES_STRUCTURE": "COC[C@@H]1CCCN1C(=O)Nc1cccc(Nc2ncc(C(N)=O)c(N[C@H](C)c3ccccc3)n2)c1", "pIC50": "7.00 to 8.00"}

Turning now to a further record.
Per the records, this compound ( CNC(=O)Nc1cc(Nc2ncc(C(N)=O)c(NCc3ccccc3)n2)ccc1OC ) has pIC50 equal to 8.00 to 9.00

====

pIC50 listing for selected compounds.
- TARGET_DESC: JAK1 (Homo sapiens, UniProt P23458)
- Construct: 5 μl of catalytic domain recombinant Kinase enzyme+Tyr peptide substrate (Invitrogen, Calif.)
- Sequence (P23458 875-1153 limits assumed): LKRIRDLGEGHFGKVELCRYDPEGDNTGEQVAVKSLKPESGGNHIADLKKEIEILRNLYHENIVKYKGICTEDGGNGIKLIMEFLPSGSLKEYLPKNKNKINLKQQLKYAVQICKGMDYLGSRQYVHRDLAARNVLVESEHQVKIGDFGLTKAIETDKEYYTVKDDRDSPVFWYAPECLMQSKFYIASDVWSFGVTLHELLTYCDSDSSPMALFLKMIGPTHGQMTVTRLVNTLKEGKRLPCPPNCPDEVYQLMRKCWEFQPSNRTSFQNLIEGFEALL
- METHOD: Z'-LYTE kinase assay, JAK1 tyrosine phosphorylation activity
- MEASUREMENT_PARAMETERS: read-out: JAK 1 IC50
pIC50: −log10 of the molar value.

{"COMPOUND": "NC(=O)c1cnc(Nc2cccc(NC(=O)N3CCOCC3)c2)nc1NCc1ccccc1 [Example 217]", "ENDPOINT_VALUE": "7.00 to 8.00"}
{"COMPOUND": "NC(=O)c1cnc(Nc2ccc(Cl)c(NC(=O)N3CCCC3)c2)nc1NCC1CCC1 [Example 263]", "ENDPOINT_VALUE": "< 6.00"}
{"COMPOUND": "CC(=O)Nc1cccc(Nc2ncc(C(N)=O)c(N[C@H](C)c3ccccc3)n2)c1 [Example 71]", "ENDPOINT_VALUE": "6.00 to 7.00"}

Per the records, this compound ( CC(=O)Nc1cccc(Nc2cc(NCc3cccc(F)c3)c(C(N)=O)cn2)c1 [Example 310] ) has pIC50 equal to 6.00 to 7.00

Per the records, this compound ( CC(=O)Nc1cccc(Nc2ncc(C(N)=O)c(NCc3ccc4c(c3)OCO4)n2)c1 [Example 99] ) has pIC50 equal to 6.00 to 7.00

Per the records, this compound ( CC(=O)Nc1cccc(Nc2ncc(C(N)=O)c(NCC3CCN(C(=O)OC(C)(C)C)C3)n2)c1 (stereo not drawn) [Example 225] ) has pIC50 equal to 6.00 to 7.00

====

IC50 listing for selected molecules.
- TARGET_DESC: JAK3 (Homo sapiens, UniProt P52333)
- Construct: 5 μl of catalytic domain recombinant Kinase enzyme+Tyr peptide substrate (Invitrogen, Calif.)
- METHOD: Z'-LYTE kinase assay, JAK3 tyrosine phosphorylation activity

{"MOLECULE": "CC(=O)Nc1cccc(Nc2ncc(C(N)=O)c(NCC3CCCN(S(C)(=O)=O)C3)n2)c1 (stereo not drawn)", "IC50": "1 to 10 nM"}
{"MOLECULE": "CC(=O)Nc1cccc(Nc2cc(NCc3ccccc3)c(C(N)=O)cn2)c1", "IC50": "10 to 100 nM"}
{"MOLECULE": "NC(=O)c1cnc(Nc2cccc(NC(=O)N3CCCC3)c2)cc1NCc1cc(F)cc(F)c1", "IC50": "1 to 10 nM"}
{"MOLECULE": "CC(=O)Nc1cccc(Nc2cc(NCc3ccc(F)cc3)c(C(N)=O)cn2)c1", "IC50": "100 to 1000 nM"}
{"MOLECULE": "CC(=O)Nc1cccc(Nc2ncc(C(N)=O)c(N[C@@H]3CCc4ccccc43)n2)c1", "IC50": "1 to 10 nM"}
{"MOLECULE": "COC(=O)Nc1cc(Nc2ncc(C(N)=O)c(NCC(F)(F)F)n2)ccc1Cl", "IC50": "10 to 100 nM"}
{"MOLECULE": "CC(=O)Nc1cccc(Nc2ncc(C(N)=O)c(Nc3cccc4nsnc34)n2)c1", "IC50": "1 to 10 nM"}
{"MOLECULE": "CC(=O)Nc1cc(Nc2ncc(C(N)=O)c(N[C@H](C)c3ccccc3)n2)ccc1Cl", "IC50": "1 to 10 nM"}
{"MOLECULE": "CC(=O)Nc1cc(Nc2ncc(C(N)=O)c(Nc3cccc4nn(C)cc34)n2)ccc1OCCN1CCCC1", "IC50": "10 to 100 nM"}
{"MOLECULE": "C[C@@H](Nc1nc(Nc2ccc(Cl)c(NC(=O)N3CCCCC3)c2)ncc1C(N)=O)c1ccccc1", "IC50": "10 to 100 nM"}

Per the records, this molecule ( NC(=O)c1cnc(Nc2cccc(NC(=O)N3CCC[C@@H](O)C3)c2)nc1NCc1ccccc1 ) has IC50 equal to 100 to 1000 nM

Per the records, this molecule ( NC(=O)c1cnc(Nc2ccc(Cl)c(NC(=O)N3CCCC3)c2)nc1NCC1CCC1 ) has IC50 equal to > 1000 nM
